Reported %Inh values are given for each entry in this list.
System: DCAMKL3;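 note: KINOMEscan kinase panel screen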
Construct: gene DCLK3
Conditions: concentration: 1 μM, replicates: in singlicate; n = 1
Express the result in % but write the number alone.

Reference set (5 entries):
| Smiles text | Tested on | %Inh / % |
| --- | --- | --- |
| CC(C)(C)c1ccc(C(=O)Nc2cn3cc(-c4cccnc4)ccc3n2)cc1 | DCAMKL3 | 25 |
| Cc1cccc(-c2cc(Nc3ccncc3)c3ccccc3n2)n1 | DCAMKL3 | 1 |
| Cc1cccc(-c2nc(-c3ccc(S(C)(=O)=O)cc3)sc2-c2ccnc(NCCc3ccccc3)c2)c1 | DCAMKL3 | 8 |
| COc1cccc(-c2cc(-c3c[nH]nc3-c3ccccn3)ccn2)c1 | DCAMKL3 | 0 |
| COc1cc2nccc(Nc3ccc(NC(=O)c4ccc(C)cc4)c(O)c3)c2cc1OC.Cl | DCAMKL3 | 16 |

Cl.NC(=O)c1cccc(Nc2nccc(Nc3ccc(Oc4cccc(Cl)c4)c(Cl)c3)n2)c1 yielded %Inh of 0

CCn1c(-c2ccccn2)nc2cnccc21 yielded %Inh of 0

Fc1cccc(COc2nnc(-c3ccc4c(c3)CCO4)o2)c1 yielded %Inh of 0

CCn1c(-c2cccnc2O)nc2cnccc21 yielded %Inh of 0
